All figures here come from patent US20080200454A1.

Attribute: pIC50
# target_of_assay: Recombinant human cathepsin S (CatS) (Homo sapiens, UniProt P25774)
# Sequence (P25774 115-331): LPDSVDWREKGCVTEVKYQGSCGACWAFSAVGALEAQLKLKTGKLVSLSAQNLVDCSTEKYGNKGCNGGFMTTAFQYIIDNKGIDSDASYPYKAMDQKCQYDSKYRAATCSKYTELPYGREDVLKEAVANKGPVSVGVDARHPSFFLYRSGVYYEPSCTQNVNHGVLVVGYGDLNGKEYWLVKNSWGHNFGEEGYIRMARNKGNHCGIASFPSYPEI
# test_name: Recombinant human cathepsin S (CatS) inhibition assay, fluorogenic substrate Z-Valine-Valine-Arginine-AMC
# measurement_setup: CatS IC50
pIC50: −log10 of the molar value.
assay_readout: pIC50

compound="C[C@H]1COCCN1CCCn1nc(-c2ccc(Cl)c(C#Cc3ccc(Cl)c(C(=O)NCCCNC(=O)OC(C)(C)C)c3)c2)c2c1CCN(C(=O)C(N)=O)C2 [Example 577]" numeric_readout=7.70
compound="C[C@H]1COCCN1CCCn1nc(-c2ccc(Cl)c(CCc3ccc(CNCc4ccc(Cl)cc4)cc3)c2)c2c1CCN(C(N)=O)C2 [Example 244]" numeric_readout=7.22
compound="C[C@H]1COCCN1CCCn1nc(-c2ccc(Cl)c(C#Cc3ccc(CNCc4ccc(Cl)cc4)cc3)c2)c2c1CCN(C(=O)CO)C2 [Example 402]" numeric_readout=6.82
compound="CCOC(=O)CN1CCc2cc(C#Cc3cc(-c4nn(CCCN5CCOCC5)c5c4CN(S(C)(=O)=O)CC5)ccc3Cl)ccc2C1 [Example 526]" numeric_readout=6.43
compound="CS(=O)(=O)N1CCc2c(c(-c3ccc(Cl)c(C#Cc4ccc(CNCc5ccc(Cl)cc5)c(Cl)c4)c3)nn2CCCN2CCOCC2)C1 [Example 546]" numeric_readout=6.52
compound="CS(=O)(=O)N1CCc2c(c(-c3ccc(Cl)c(C#Cc4ccc(CNCc5ccc(Cl)cc5)cc4)c3)nn2CCCN2CC[C@@H](O)C2)C1 [Example 383]" numeric_readout=6.92

---

# target_of_assay: Recombinant human cathepsin S (CatS) (Homo sapiens, UniProt P25774)
# test_name: Recombinant human cathepsin S (CatS) inhibition assay, fluorogenic substrate Z-Valine-Valine-Arginine-AMC;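 also: Baculovirus-expressed CatS in pH 5.0 sodium acetate buffer with DTT and NaCl, fluorescence read each minute over 20 min, inhibition derived from rate slope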
pIC50: −log10 of the molar value.
assay_readout: pIC50

molecule="CS(=O)(=O)N1CCc2c(c(-c3ccc(C(F)(F)F)c(C#Cc4ccc(Cl)cc4)c3)nn2CC(O)CN2CCC(N3CCCC3=O)CC2)C1 (stereo not drawn)" target_of_assay="Recombinant human cathepsin S (CatS) (Homo sapiens, UniProt P25774)" assay_readout=pIC50 numeric_readout=7.40
molecule=CS(=O)(=O)N1CCc2c(c(-c3ccc(Cl)c(C#Cc4ccc5c(c4)CN[C@H](C(=O)N4CCCC4)C5)c3)nn2CCCN2CCOCC2)C1 target_of_assay="Recombinant human cathepsin S (CatS) (Homo sapiens, UniProt P25774)" assay_readout=pIC50 numeric_readout=7.30
molecule="COC(=O)C1CCN(CC(O)Cn2nc(-c3ccc(Cl)c(C#Cc4ccc(Cl)cc4)c3)c3c2CCN(S(C)(=O)=O)C3)CC1 (stereo not drawn)" target_of_assay="Recombinant human cathepsin S (CatS) (Homo sapiens, UniProt P25774)" assay_readout=pIC50 numeric_readout=7.70
molecule=COC(=O)Cc1cccc(C#Cc2cc(-c3nn(CCCN4CCOCC4)c4c3CN(S(C)(=O)=O)CC4)ccc2Cl)c1 target_of_assay="Recombinant human cathepsin S (CatS) (Homo sapiens, UniProt P25774)" assay_readout=pIC50 numeric_readout=5.59
molecule=Cc1cccc(S(=O)(=O)NCCCc2cc(-c3nn(CCCN4CCC(N5CCCC5=O)CC4)c4c3CN(S(C)(=O)=O)CC4)ccc2Cl)c1 target_of_assay="Recombinant human cathepsin S (CatS) (Homo sapiens, UniProt P25774)" assay_readout=pIC50 numeric_readout=5.88
molecule="C[C@H]1COCCN1CCCn1nc(-c2ccc(Cl)c(C#Cc3ccc(Cl)c(C(=O)NCC4CCCNC4)c3)c2)c2c1CCN(C(=O)C(N)=O)C2 (stereo partly drawn)" target_of_assay="Recombinant human cathepsin S (CatS) (Homo sapiens, UniProt P25774)" assay_readout=pIC50 numeric_readout=7.70
molecule="CC(NCc1ccc(C#Cc2cc(-c3nn(CCCN4CCN(c5ccccn5)CC4)c4c3CN(S(C)(=O)=O)CC4)ccc2Cl)cc1)c1ccccc1 (stereo not drawn)" target_of_assay="Recombinant human cathepsin S (CatS) (Homo sapiens, UniProt P25774)" assay_readout=pIC50 numeric_readout=7.40
molecule=CS(=O)(=O)N1CCc2c(c(-c3ccc(Cl)c(C#Cc4ccc(CNCc5ccc(Cl)cc5)cc4)c3)nn2C[C@H](O)CN2CCOCC2)C1 target_of_assay="Recombinant human cathepsin S (CatS) (Homo sapiens, UniProt P25774)" assay_readout=pIC50 numeric_readout=6.43
molecule=NC(=O)N1CCc2c(c(-c3ccc(Cl)c(C#Cc4ccc(Cl)c(C(=O)NC[C@@H]5CCNC5)c4)c3)nn2CCCN2CCSCC2)C1 target_of_assay="Recombinant human cathepsin S (CatS) (Homo sapiens, UniProt P25774)" assay_readout=pIC50 numeric_readout=7.40
molecule=CS(=O)(=O)N1CCc2c(c(-c3ccc(Cl)c(C#Cc4ccc(CNS(=O)(=O)c5ccccc5)cc4)c3)nn2CCCN2CCOCC2)C1 target_of_assay="Recombinant human cathepsin S (CatS) (Homo sapiens, UniProt P25774)" assay_readout=pIC50 numeric_readout=6.77
molecule="CS(=O)(=O)N1CCc2c(c(-c3ccc(Cl)c(C#Cc4ccc(CNC5CCc6ccccc65)cc4)c3)nn2CCCN2CCN(c3ccccn3)CC2)C1 (stereo not drawn)" target_of_assay="Recombinant human cathepsin S (CatS) (Homo sapiens, UniProt P25774)" assay_readout=pIC50 numeric_readout=7.30
molecule="CS(=O)(=O)N1CCc2c(c(-c3ccc(Cl)c(C#Cc4ccc(CNCc5ccc(Cl)cc5)cc4)c3)nn2CC(O)CN2CCOCC2)C1 (stereo not drawn)" target_of_assay="Recombinant human cathepsin S (CatS) (Homo sapiens, UniProt P25774)" assay_readout=pIC50 numeric_readout=6.72
molecule=CS(=O)(=O)N1CCc2c(c(-c3ccc(Cl)c(C#Cc4ccc(CNCc5ccc(Cl)cc5)cc4)c3)nn2CCCN2CCN(c3ccc(O)cc3)CC2)C1 target_of_assay="Recombinant human cathepsin S (CatS) (Homo sapiens, UniProt P25774)" assay_readout=pIC50 numeric_readout=7.40
molecule=CS(=O)(=O)N1CCc2c(c(-c3ccc(Cl)c(C#CCCCO)c3)nn2CCCN2CCOCC2)C1 target_of_assay="Recombinant human cathepsin S (CatS) (Homo sapiens, UniProt P25774)" assay_readout=pIC50 numeric_readout=5.10
molecule=CS(=O)(=O)N1CCc2c(c(-c3ccc(Cl)c(CCc4ccc5[nH]ccc5c4)c3)nn2CCCN2CCOCC2)C1 target_of_assay="Recombinant human cathepsin S (CatS) (Homo sapiens, UniProt P25774)" assay_readout=pIC50 numeric_readout=6.46
molecule=COc1cccc(S(=O)(=O)NCCCc2cc(-c3nn(CCCN4CCC(N5CCCC5=O)CC4)c4c3CN(S(C)(=O)=O)CC4)ccc2Cl)c1 target_of_assay="Recombinant human cathepsin S (CatS) (Homo sapiens, UniProt P25774)" assay_readout=pIC50 numeric_readout=5.98
molecule=NC(=O)C(=O)N1CCc2c(c(-c3ccc(Cl)c(C#Cc4ccc(CNCc5ccc(Cl)cc5)cc4)c3)nn2CCCN2CCN(c3ccccc3)CC2)C1 target_of_assay="Recombinant human cathepsin S (CatS) (Homo sapiens, UniProt P25774)" assay_readout=pIC50 numeric_readout=7.70
molecule=C[C@H]1COCCN1CCCn1nc(-c2ccc(Cl)c(C#Cc3ccc(Cl)c(C(=O)NC[C@@H]4CCCN4)c3)c2)c2c1CCN(C(=O)C(N)=O)C2 target_of_assay="Recombinant human cathepsin S (CatS) (Homo sapiens, UniProt P25774)" assay_readout=pIC50 numeric_readout=7.52
molecule=NC(=O)C(=O)N1CCc2c(c(-c3ccc(Cl)c(C#Cc4ccc(Cl)c(C(=O)NCCCO)c4)c3)nn2CCCN2CCSCC2)C1 target_of_assay="Recombinant human cathepsin S (CatS) (Homo sapiens, UniProt P25774)" assay_readout=pIC50 numeric_readout=7.70
molecule=CC(=O)NCC(=O)N1CCc2c(c(-c3ccc(Cl)c(C#Cc4ccc(CNCc5ccc(Cl)cc5)cc4)c3)nn2CCCN2CCOCC2)C1 target_of_assay="Recombinant human cathepsin S (CatS) (Homo sapiens, UniProt P25774)" assay_readout=pIC50 numeric_readout=6.80
molecule=CS(=O)(=O)N1CCc2c(c(-c3ccc(Cl)c(CCCCN4CCCC4)c3)nn2CCCN2CCC(N3CCCC3=O)CC2)C1 target_of_assay="Recombinant human cathepsin S (CatS) (Homo sapiens, UniProt P25774)" assay_readout=pIC50 numeric_readout=5.64
molecule=CS(=O)(=O)N1CCc2c(c(-c3ccc(Cl)c(C#CCOc4ccccc4)c3)nn2CCCN2CCOCC2)C1 target_of_assay="Recombinant human cathepsin S (CatS) (Homo sapiens, UniProt P25774)" assay_readout=pIC50 numeric_readout=4.87
molecule=CS(=O)(=O)N1CCc2c(c(-c3ccc(Cl)c(C#CCc4ccccc4)c3)nn2C[C@@H](O)CN2CCC(C3CCNCC3)CC2)C1 target_of_assay="Recombinant human cathepsin S (CatS) (Homo sapiens, UniProt P25774)" assay_readout=pIC50 numeric_readout=6.37
molecule="C[C@H]1COCCN1CCCn1nc(-c2ccc(Cl)c(C#Cc3ccc(Cl)c(COC4CCNC4)c3)c2)c2c1CCN(C(=O)C(N)=O)C2 (stereo partly drawn)" target_of_assay="Recombinant human cathepsin S (CatS) (Homo sapiens, UniProt P25774)" assay_readout=pIC50 numeric_readout=7.30
